experiment: physchem; details: 25 °C, water
readoutLabel: solubility (µg/mL)
Field format: number, assumed µg/mL, no unit text.

Field: example entries. Status: answers known.
# molecule, quantitativeResult
data = [
    ("CC(C)CCC[C@@H](C)[C@H]1CC[C@H]2[C@@H]3CC=C4C[C@@H](O)CC[C@]4(C)[C@H]3CC[C@]12C", 0.1),
    ("O=C(Nc1cccc2c(=O)cc(-c3nnn[nH]3)oc12)c1ccc(OCCCCc2ccccc2)cc1", 0.9),
    ("CSc1ccc(-c2nn(Cc3ccccc3)c(=O)cc2-c2ccc(Cl)cc2)cc1", 0.01),
]

Now consider a different molecule.
Ask | Would you kindly share the measured solubility for CCCCC(=O)O[C@]1(C(=O)COC(C)=O)CC[C@H]2[C@@H]3CCC4=CC(=O)C=C[C@]4(C)[C@H]3[C@@H](O)C[C@@]21C [prednisolone valerate acetate] ?
Reply | 4
